target_or_system: Adenosine receptor A3 (Rattus norvegicus, UniProt P28647)
Sequence (P28647 whole entry): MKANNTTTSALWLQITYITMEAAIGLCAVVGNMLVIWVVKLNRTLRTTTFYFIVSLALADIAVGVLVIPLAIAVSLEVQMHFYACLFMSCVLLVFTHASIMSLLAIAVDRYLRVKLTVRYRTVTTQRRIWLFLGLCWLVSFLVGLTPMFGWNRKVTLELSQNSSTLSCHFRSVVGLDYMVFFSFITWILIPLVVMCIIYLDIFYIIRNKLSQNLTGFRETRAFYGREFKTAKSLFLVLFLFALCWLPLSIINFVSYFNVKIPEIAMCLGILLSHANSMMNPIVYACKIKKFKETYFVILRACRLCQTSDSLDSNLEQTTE
method_notes: Binding affinity to rat adenosine A3 receptor in CHO cells
pKi: −log10 of the molar value.
measured_property: pKi

>  <compound>
CNC(=O)C12C[C@@H]1[C@@H](n1cnc3c(NC4CCCC4)ncnc31)[C@H](O)[C@@H]2O (single isomer, unassigned)

>  <pKi>
7.99

$$$$

1 = CNC(=O)C12C[C@@H]1[C@@H](n1cnc3c(NC4C5CCC4CC5)nc(Cl)nc31)[C@H](O)[C@@H]2O (single isomer, unassigned)
2 = OC[C@H]1O[C@@H](n2cnc3c(NC4C5CCC4CC5)ncnc32)[C@H](O)[C@@H]1O (stereo partly drawn)
Sort 1 and 2 by pKi descending and give the first. Lab note: record the label of whichever item you select.
1
(1: 8.02, 2: 6.64)
